run_description: Blood pharmacokinetics of cabotegravir after a single subcutaneous administration with or without rHuPH20
Assay type: in vivo, male Sprague-Dawley rats
details: male, Sprague-Dawley, rat, whole blood, sc, 5 mg/kg, rat blood, single SC 5 mg/kg, with rHuPH20 approx. 3000 units SC (Group 4), individual animals; read-out: Tmax
value_kind: Tmax

C[C@H]1CO[C@@H]2Cn3cc(C(=O)NCc4ccc(F)cc4F)c(=O)c(O)c3C(=O)N12 | 14.2 days

----------
run_description: Blood pharmacokinetics of cabotegravir after a single subcutaneous administration with or without rHuPH20
Assay type: in vivo, male Sprague-Dawley rats
details: male, Sprague-Dawley, rat, whole blood, sc, 5 mg/kg, rat blood, single SC 5 mg/kg, without rHuPH20 (Group 3), individual animals; read-out: Cmax
value_kind: Cmax (ng/mL)

C[C@H]1CO[C@@H]2Cn3cc(C(=O)NCc4ccc(F)cc4F)c(=O)c(O)c3C(=O)N12 [Cabotegravir] | 7600

----------
run_description: CAB Cmax safety threshold
Format: in vivo
details: CAB plasma concentration; read-out: safety threshold: Cmax not associated with any toxicity
value_kind: Cmax (ng/mL)

C[C@H]1CO[C@@H]2Cn3cc(C(=O)NCc4ccc(F)cc4F)c(=O)c(O)c3C(=O)N12 | 22500

----------
run_description: Blood pharmacokinetics of cabotegravir after a single subcutaneous administration with or without rHuPH20
Assay type: in vivo, male Sprague-Dawley rats
details: male, Sprague-Dawley, rat, whole blood, sc, 5 mg/kg, rat blood, single SC 5 mg/kg, without rHuPH20 (Group 3), mean ± SD; read-out: Cmax
value_kind: Cmax

C[C@H]1CO[C@@H]2Cn3cc(C(=O)NCc4ccc(F)cc4F)c(=O)c(O)c3C(=O)N12 [Cabotegravir] | 7000 ng/mL

----------
run_description: Blood pharmacokinetics of cabotegravir after a single subcutaneous administration with or without rHuPH20
Assay type: in vivo, male Sprague-Dawley rats
details: male, Sprague-Dawley, rat, whole blood, sc, 10 mg/kg, rat blood, single SC 10 mg/kg, without rHuPH20 (Group 1), individual animals; read-out: AUC (0-tlast)
value_kind: AUC(0-t) (µg·h/mL)

C[C@H]1CO[C@@H]2Cn3cc(C(=O)NCc4ccc(F)cc4F)c(=O)c(O)c3C(=O)N12 | 5640

----------
run_description: Blood pharmacokinetics of cabotegravir after a single subcutaneous administration with or without rHuPH20
Format: in vivo, male Sprague-Dawley rats
details: male, Sprague-Dawley, rat, whole blood, sc, 10 mg/kg, rat blood, single SC 10 mg/kg, without rHuPH20 (Group 1), individual animals; read-out: Tmax
value_kind: Tmax

C[C@H]1CO[C@@H]2Cn3cc(C(=O)NCc4ccc(F)cc4F)c(=O)c(O)c3C(=O)N12 | 14.2 days

----------
run_description: Blood pharmacokinetics of cabotegravir after a single subcutaneous administration with or without rHuPH20
Format: in vivo, male Sprague-Dawley rats
details: male, Sprague-Dawley, rat, whole blood, sc, 10 mg/kg, rat blood, single SC 10 mg/kg, with rHuPH20 approx. 3000 units SC (Group 2), individual animals; read-out: Cmax
value_kind: Cmax (ng/mL)

C[C@H]1CO[C@@H]2Cn3cc(C(=O)NCc4ccc(F)cc4F)c(=O)c(O)c3C(=O)N12 [Cabotegravir] | 10000
